Dear all, I have gathered published IC50 values for Lysine-specific histone demethylase 1A (Homo sapiens, UniProt O60341); the list follows.

Answered cases to consult:
COc1ccc(-c2c(-c3ccc(C#N)c(F)c3)nc(NC3CCNCC3)n(C)c2=O)cc1 ... < 100 nM
N#Cc1ccc(-c2nc(C(=O)N3CCC[C@@H](N)C3)sc2-c2cnn(CC(F)(F)F)c2)cc1 ... ≤ 100 nM
NC1CCN(C(=O)c2nc(C3(CN[C@@H]4C[C@H]4c4ccccc4)CC3)no2)CC1 ... ≤ 50 nM
N#Cc1ccc(-c2cc(NC[C@H]3CCC[C@H](N)C3)nn2-c2cccc(-c3cnn(CCO)c3)c2)cc1F ... < 500 nM
N#Cc1ccc(-c2cc(NC[C@H]3CCC[C@H](N)C3)nn2-c2ccncc2)cc1F ... > 10000 nM

State the recorded IC50 for this entry: Cn1c(-c2ccc(OCC3CC3)cc2)c(-c2ccc(C#N)c(F)c2)nc(NC[C@H]2CCNC2)c1=O
< 100 nM

Quick one: CC(C)(O)Cn1ncc2cc(-c3c(-c4ccc(C#N)c(F)c4)nc4c(N5CCC[C@@H](N)C5)nccn34)ccc21
0.97 nM

Quick one: N#Cc1ccc(-c2cc(NC[C@H]3CCC[C@H](N)C3)nn2-c2ccc(N3CCC(O)CC3)cc2)cc1F
< 500 nM

Quick one: COc1ccc(-c2c(-c3ccc(C#N)c(F)c3)nc(N3CC[C@@H](N)C3)n(C)c2=O)cc1F
< 100 nM
